tested on: NCI-H23; test: Growth inhibition of human NCI-H23 cells; assay type: functional
What GI50 was measured for each of the following?
Use µM as the unit, but write only the number.

Name the reported GI50 value associated with the molecule COc1ccc(-c2cn(-c3cccc(C(=O)/C=C/c4ccc(O)c(OC)c4)c3)c(=O)[nH]2)cc1
2.85

Suppose we examine the molecule COc1cc(/C=C/C(=O)c2cccc(-n3cc(-c4ccccc4)[nH]c3=O)c2)cc(OC)c1OC ; what GI50 value has been reported?
1.43

Requested read-out: GI50. Entry: COc1cc(/C=C/C(=O)c2cccc(-n3cc(-c4ccc(Cl)cc4)[nH]c3=O)c2)cc(OC)c1OC
3.56

Sample COc1cc(/C=C/C(=O)c2cccc(-n3cc(-c4cc(OC)c(OC)c(OC)c4)[nH]c3=O)c2)cc(OC)c1OC — what was its GI50?
2

Can you look up the measured GI50 of COc1ccc(-c2cn(-c3cccc(C(=O)/C=C/c4cc(OC)c(OC)c(OC)c4)c3)c(=O)[nH]2)cc1 for me?
1.63

Any idea what its GI50 is? The molecule is O=C(/C=C/c1cccc(O)c1)c1cccc(-n2cc(-c3ccc(Cl)cc3)[nH]c2=O)c1
2.78

So what does the record say about GI50 for O=C(/C=C/c1cccc(O)c1)c1cccc(-n2cc(-c3ccccc3)[nH]c2=O)c1 ?
3.35

GET /values?readout=GI50&item= COc1cc(/C=C/C(=O)c2cccc(-n3cc(-c4ccc(Cl)cc4)[nH]c3=O)c2)ccc1O
3.18

Need GI50 of COc1cc(/C=C/C(=O)c2cccc(-n3cc(-c4ccccc4)[nH]c3=O)c2)ccc1O , thanks.
2.02
